- Tested on: E. faecalis (Ef)
- measurementDescription: Broth microdilution minimum inhibitory concentration (MIC)
- Format: cell-based
- testConditions: Enterococcus faecalis, E. faecalis; growth medium supplemented with sodium bicarbonate; read-out: Ef + bicarb MIC
Would you mind telling me the reported MIC of each entry?

// each molecule listed below needs its MIC
1. CC(Cc1ccc(-n2ccc(NC(=O)N3CCN(C(=O)C(C)(C)N)CC3)nc2=O)cc1)NC[C@@H]1CCC[C@@H](N)C1 (mixture of isomers)
2. CC(C)(N)C(=O)N1CCN(C(=O)Nc2ccn(-c3cccc(CCN4CC[C@H](CN)C4)c3)c(=O)n2)CC1 (stereo in doubt)
3. CCN(Cc1ccc(-n2ccc(NC(=O)N3CCN(C(=O)C(C)(C)N)CC3)nc2=O)cc1)[C@H]1CC[C@@H](N)CC1
4. CCCN(Cc1ccc(-n2ccc(NC(=O)N3CCN(C(=O)C(C)(C)N)CC3)nc2=O)cc1)[C@H]1CC[C@H](N)CC1

Solution:
["> 32 µg/mL", "> 32 µg/mL", "< 8 µg/mL", "< 8 µg/mL"]

Problem: Record request: MIC value, item CC(N)C1CCN(Cc2ccc(-n3ccc(NC(=O)N4CCN(C(=O)C(C)(C)N)CC4)nc3=O)cn2)CC1 (centres unmarked)
Solution: > 32 µg/mL

====

- Tested on: P. aeruginosa (Pa)
- measurementDescription: Broth microdilution minimum inhibitory concentration (MIC)
- Type: cell-based
- testConditions: Pseudomonas aeruginosa, P. aeruginosa; growth medium supplemented with sodium bicarbonate; read-out: Pa MIC + bicarb
Would you mind telling me the reported MIC of each entry?

molecule=CCN(Cc1ccc(-n2ccc(NC(=O)N3CCN(C(=O)C(C)(C)N)CC3)nc2=O)cc1)[C@H]1CC[C@H](N)C1 readoutname=MIC reportedresult="> 32 µg/mL"
molecule="CC(Cc1ccc(-n2ccc(NC(=O)N3CCN(C(=O)C(C)(C)N)CC3)nc2=O)cc1)NC[C@@H]1CCC[C@@H](N)C1 (mixture of isomers)" readoutname=MIC reportedresult="> 32 µg/mL"

// each molecule listed below needs its MIC
1. CC(C)(N)C(=O)N1CCN(C(=O)Nc2ccn(-c3ccc(C(N)C(=O)NC4CNC4)cc3)c(=O)n2)CC1 (stereo not drawn)
2. CC(C)(N)C(=O)N1CCN(C(=O)Nc2ccn(-c3ccc(CCN4CCCC(N)CC4)c(C(F)(F)F)c3)c(=O)n2)CC1 (stereo not drawn)
3. CC(C)(N)C(=O)N1CCN(C(=O)Nc2ccn(-c3ccc(CCNC4CCCNCC4)cc3)c(=O)n2)CC1 (stereo not drawn)
4. NC1CCN(Cc2ccc(-n3ccc(NC(=O)N4CC(N)C4)nc3=O)cc2)CC1
5. CN(Cc1ccc(-n2ccc(NC(=O)N3CCN(C(=O)C(C)(C)N)CC3)nc2=O)cc1)[C@@H]1CC[C@H](N)C1
6. C[C@@H]1CCN(CCc2ccc(-n3ccc(NC(=O)N4CCN(C(=O)[C@](C)(N)CO)CC4)nc3=O)cc2)CC[C@H]1N (stereo in doubt)
7. CC(C)(N)C(=O)N1CCN(C(=O)Nc2ccn(-c3cccc(CCN4CC[C@H](CN)C4)c3)c(=O)n2)CC1 (stereo in doubt)

Solution:
["> 32 µg/mL", "8 to 32 µg/mL", "> 32 µg/mL", "> 32 µg/mL", "> 32 µg/mL", "> 32 µg/mL", "> 32 µg/mL"]

// each molecule listed below needs its MIC
1. CNC(C)(C)C(=O)N1CCN(C(=O)Nc2ccn(-c3ccc(CN4CCC(N)CC4)cc3)c(=O)n2)CC1
2. CC(C)(N)C(=O)N1CCN(C(=O)Nc2ccn(-c3ccc(CN[C@H]4CC[C@@H](N)CC4)cc3)c(=O)n2)CC1
3. CCN(Cc1ccc(-n2ccc(NC(=O)N3CCN(C(=O)C(C)(C)N)CC3)nc2=O)cc1)[C@H]1CC[C@H](N)CC1
4. CC(C)(N)C(=O)N1CCN(C(=O)Nc2ccn(-c3ccc(CCN4CCCC(N)CC4)c(F)c3)c(=O)n2)CC1 (stereo not drawn)
5. CCN(C(C)Cc1ccc(-n2ccc(NC(=O)N3CCN(C(=O)C(C)(C)N)CC3)nc2=O)cc1)[C@H]1CC[C@@H](N)C1 (stereo partly drawn)
6. CC(C)CN(Cc1ccc(-n2ccc(NC(=O)N3CCN(C(=O)C(C)(C)N)CC3)nc2=O)cc1)[C@H]1CC[C@H](N)CC1
7. CC(N)C1CCN(Cc2ccc(-n3ccc(NC(=O)N4CCN(C(=O)[C@@](C)(N)CO)[C@H](C)C4)nc3=O)cc2)CC1 (stereo partly drawn)

Solution:
> 32 µg/mL
> 32 µg/mL
< 8 µg/mL
8 to 32 µg/mL
8 to 32 µg/mL
8 to 32 µg/mL
> 32 µg/mL

// each molecule listed below needs its MIC
1. CC(C)(N)C(=O)N1CCN(C(=O)Nc2ccn(-c3ccc(CCN4CCC[C@@H](CN)C4)cc3)c(=O)n2)CC1
2. Cc1cc(-n2ccc(NC(=O)N3CCN(C(=O)C(C)(C)N)CC3)nc2=O)ccc1CN1CCC(N)CC1

Solution:
1: > 32 µg/mL; 2: > 32 µg/mL

====

- Test system: E. coli S30 extract (bacterial protein synthesis)
- measurementDescription: E. coli S30 extract coupled transcription-translation luciferase assay (inhibition of bacterial protein synthesis)
- Type: biochemical
- testConditions: % inhibition @ 1 μM, read-out: S30 IC50 (μM/% inhib.)
Where a name gives a salt, the structure may show the parent alone.
readoutName: IC50

molecule="CC(C)(N)CC(=O)N1CCN(C(=O)Nc2ccn(-c3cccc(CN4CCC(C)(N)CC4)c3)c(=O)n2)CC1 [Compound 363, hydrochloride salt]" assayedtarget="E. coli S30 extract (bacterial protein synthesis)" reportedresult="> 1 µM"
molecule="CC(C)(N)C(=O)N1CCN(C(=O)Nc2ccn(-c3ccc(CN(C4CC4)[C@H]4CC[C@H](N)CC4)cc3)c(=O)n2)CC1 [Compound 348, hydrochloride salt]" assayedtarget="E. coli S30 extract (bacterial protein synthesis)" reportedresult="< 0.5 µM"
molecule="CC(C)(N)C(=O)N1CCN(C(=O)Nc2ccn(-c3ccc(CN4CCCC(N)CC4)cc3)c(=O)n2)CC1 (stereo not shown) [Compound 365, hydrochloride salt]" assayedtarget="E. coli S30 extract (bacterial protein synthesis)" reportedresult="< 0.5 µM"
molecule=CC(C)(N)C(=O)N1CCN(C(=O)Nc2ccn(-c3ccc(CCN4CC(C5CCNCC5)C4)cc3)c(=O)n2)CC1 assayedtarget="E. coli S30 extract (bacterial protein synthesis)" reportedresult="> 1 µM"
molecule="CC1(N)CCN(CCc2ccc(-n3ccc(NC(=O)N4CCN(C(=O)C(C)(N)CO)CC4)nc3=O)cc2)CC1 (stereo in doubt)" assayedtarget="E. coli S30 extract (bacterial protein synthesis)" reportedresult="> 1 µM"
molecule=CC(C)(N)C(=O)N1CCN(C(=O)Nc2ccn(-c3ccc(CC4(N5CCC(N)CC5)CC4)cc3)c(=O)n2)CC1 assayedtarget="E. coli S30 extract (bacterial protein synthesis)" reportedresult="> 1 µM"

Problem: Record request: IC50 value, item `CC1(N)CCN(Cc2ccc(-n3ccc(NC(=O)N4CCN(C(=O)[C@@](C)(N)CO)CC4)nc3=O)cc2Cl)CC1`
Solution: < 0.5 µM

====

- System: A. baumannii (Ab)
- measurementDescription: Broth microdilution minimum inhibitory concentration (MIC)
- Type: cell-based
- testConditions: Acinetobacter baumannii; A. baumannii; growth medium with sodium bicarbonate; read-out: Ab + bicarb MIC
Would you mind telling me the reported MIC of each entry?

// each compound listed below needs its MIC
1. CCN(Cc1ccc(-n2ccc(NC(=O)N3CCN(C(=O)[C@@H](C)N)CC3)nc2=O)cc1)C1CCC(N)CC1 (some centres unmarked)
2. C[C@H]1CN(Cc2ccc(-n3ccc(NC(=O)N4CCN(C(=O)C(C)(C)N)CC4)nc3=O)cc2)CC[C@H]1N
3. CC(C)(N)C(=O)N1CCN(C(=O)Nc2ccn(-c3ccc(CN4CC(C5CCNCC5)C4)cc3)c(=O)n2)CC1
4. Cc1cc(-n2ccc(NC(=O)N3CCN(C(=O)C(C)(C)N)CC3)nc2=O)ccc1CN(CC1CC1)C1CCC(N)CC1 (centres unmarked)
5. Cc1cc(-n2ccc(NC(=O)N3CCN(C(=O)C(C)(C)N)CC3)nc2=O)ccc1CN(C)C1CCC(N)CC1 (centres unmarked)

Solution:
["> 32 µg/mL", "> 32 µg/mL", "> 32 µg/mL", "< 8 µg/mL", "< 8 µg/mL"]

====

- Tested on: A. baumannii (Ab)
- measurementDescription: Broth microdilution minimum inhibitory concentration (MIC)
- Assay type: cell-based
- testConditions: Acinetobacter baumannii; A. baumannii; growth medium with sodium bicarbonate; read-out: Ab + bicarb MIC
readoutName: MIC

The following molecules have reported results that may help.
molecule="CC(C)N(Cc1ccc(-n2ccc(NC(=O)N3CCN(C(=O)C(C)(C)N)CC3)nc2=O)cc1)C1CCC(N)CC1 (stereo not drawn)" readoutname=MIC reportedresult="> 32 µg/mL"
molecule="CCN(Cc1ccc(-n2ccc(NC(=O)N3CCN(C(=O)C(C)(C)N)C[C@H]3C)nc2=O)cc1)C1CCC(N)CC1 (stereo partly drawn)" readoutname=MIC reportedresult="< 8 µg/mL"

Now turn to the next molecule.
Problem: Record request: MIC value, item `C[C@H](N)C1CCN(Cc2ccc(-n3ccc(NC(=O)N4CCN(C(=O)C(C)(C)N)CC4)nc3=O)cc2)CC1`
Solution: 8 to 32 µg/mL
